testProtocol: RP, Restek Raptor Biphenyl, 100 × 2.1 mm, 2.7 µm, 50 °C, 0.4 mL/min, estimated dead time 0.55 min; A: water + 0.1% formic acid, pH 3; B: methanol + 0.1% formic acid, pH 3; gradient (min/%B) 0/5 1.12/5 6.41/99.5 10.01/99.5
conditionDetails: stereoisomer not certain
// classify: if (LC retention time < 5 min) criterion met else criterion not met

[[record]]
compound = "CCCCCCCCCCCCCC(O)CC(=O)OC(CC(=O)[O-])C[N+](C)(C)C [[(3R)-3-Hydroxyhexadecanoyl]-L-carnitine]"
assignedcategory = "criterion not met"

[[record]]
compound = "CC(C)CCCCCCCCCCCCCC(=O)O"
assignedcategory = "criterion not met"

[[record]]
compound = "CC(CCC(=O)O)C1CCC2C3C(=O)CC4CC(O)CCC4(C)C3CCC12C (stereo not drawn)"
assignedcategory = "criterion not met"

[[record]]
compound = "CC(CCC(=O)NCC(=O)O)C1CCC2C3CCC4CC(O)CCC4(C)C3CCC12C (stereo not drawn)"
assignedcategory = "criterion not met"

[[record]]
compound = "CCC=CCC=CCC=CCC=CC/C=C\\CCCC(=O)O [cis-5,8,11,14,17-Eicosapentaenoic acid]"
assignedcategory = "criterion not met"


Ask: Given CC(C)CC(O)C(=O)O (stereo not drawn) [2-Hydroxyisocaproic acid] , is recorded LC retention time strictly lower than 5 min?
Result: criterion met

Ask: Given COc1ccc2[nH]cc(CCNC(C)=O)c2c1 , is recorded LC retention time strictly lower than 5 min?
Result: criterion met

Provenance of the data: the RepoRT retention time repository
